Assay: solvent given as SMILES
Settings: in C1CCOC1
Field 'label' (enum: Criterion met / Criterion not met). Set to Criterion met when absorption maximum is strictly under 400 nm; else Criterion not met.

> print(dat)
                            molecule.smiles     assigned.class
1              Cc1ccc(-c2cc3ccccc3oc2=O)cc1      Criterion met
2  COc1ccc2cc(C#Cc3ccc([N+](=O)[O-])cc3)ccc2c1      Criterion met
3  N#Cc1c(N2CCCCC2)cc(-c2ccc3ccccc3c2)c2c1-c1ccccc1C2      Criterion met
4  C[Si](C)(C)c1ccc(-c2ccc(-c3ccc(-c4ccc(-c5ccc([Si](C)(C)C)cc5)s4)c4nsnc34)s2)cc1  Criterion not met
5  CCN(CC)c1ccc(-c2cc3c(s2)c(C(=O)OC)cc(=O)n3C)cc1  Criterion not met
6  CCCCCCc1cc2c(s1)-c1sc(CCCCCC)cc1P(c1ccccc1)(c1ccccc1)=[O+][B-]2(c1c(C)cc(C)cc1C)c1c(C)cc(C)cc1C  Criterion not met
7  CCCCCCCCCCCCOc1ccc(C#Cc2ccc(C#Cc3ccc(OCCCCCCCCCCCC)c(OCCCCCCCCCCCC)c3)c3nc4c5ccccc5c5ccccc5c4nc23)cc1OCCCCCCCCCCCC  Criterion not met

====

Assay: solvent given as SMILES
Conditions: in CN(C)C=O
Answer F if absorption maximum is under 500 nm, and T if it is 500 nm or more.

> print(dat)
                                   compound  assigned.class
1  O=C(/C=C/c1cn(-c2ccccc2)nc1-c1ccccc1)c1c(O)c2ccccc2oc1=O               F
2  CCOc1cc2c(cc1/C=C/C(=C(C#N)C#N)c1ccccc1)c1ccccc1n2CC               F
3  CN(CCO)c1ccc(/C=C/C2=C(C#N)C(C(C#N)C#N)OC2(C)C)cc1 (stereo not given)               T
4  CN(c1ccccc1)c1ccc(/C=C2\C(=O)c3ccccc3S2(=O)=O)cc1               F

====

Assay: solvent given as SMILES
Conditions: in C1COCCO1
Endpoint Name: absorption maximum (nm)

Molecule Smiles	Recorded Measurement
[C-]#[N+]c1ccc(-c2ccc(N(C)C)cc2)cc1	330
COc1cc(OC)cc(-c2ccc(-c3ccc(C#N)s3)s2)c1	366
CN(C)c1ccc(/C=C2/N=C(c3ccccc3)OC2=O)cc1	466
CCc1ccc(/C=N/c2cc(C(C)C)c(O)cc2C)cc1	347
COC(=O)CNC(=O)c1nc2c(N(C)C)nc(N(C)C)nc2n1Cc1ccccc1	336
COC(=O)c1nc2c(N)nc(N(C)C)nc2n1Cc1ccccc1	340
CCN(CC)c1ccc2cc(/C=C/C(O)=C3\CC/C(=C\c4cc5ccc(N(CC)CC)cc5oc4=O)C3=O)c(=O)oc2c1	513
C(=C\c1ccc(N(c2ccccc2)c2ccccc2)cc1)/c1ccc(-c2cc(-c3ccccn3)nc(-c3ccccn3)c2)cc1	382
CN(C)c1ccc(/C=C/c2cc[n+](CCCOCC(COCCC[n+]3ccc(/C=C/c4ccc(N(C)C)cc4)cc3)(COCCC[n+]3ccc(/C=C/c4ccc(N(C)C)cc4)cc3)COCCC[n+]3ccc(/C=C/c4ccc(N(C)C)cc4)cc3)cc2)cc1	460

====

Test: solvent given as SMILES
Settings: in ClCCl
Rule: measured absorption maximum below 400 nm gets yes (1); anything equal to or greater than 400 nm gets no (0).

Molecule Smiles	Assigned Class
CC(C)(C)c1ccc(Oc2cc3c4c(cc(Oc5ccc(C(C)(C)C)cc5)c5c6c(Oc7ccc(C(C)(C)C)cc7)cc7c8c(cc(Oc9ccc(C(C)(C)C)cc9)c(c2c45)c86)C(=O)C2=C7O[B-](F)(F)[n+]4c2ccc2ccccc24)C2=C(C3=O)c3ccc4ccccc4[n+]3[B-](F)(F)O2)cc1	no (0)
CCCCCCN(CCCCCC)c1ccc(C#Cc2ccc(N(CCCCCC)CCCCCC)cc2)cc1	yes (1)
N#C/C(=C\c1ccc(-c2ccncc2)cc1)c1ccc(-c2ccncc2)cc1	yes (1)
CCN(CC)c1ccc(/C=C/C2=[O+][B-](F)(F)Oc3c2c(=O)oc2cc(N(CC)CC)ccc32)cc1	no (0)
CCCCCCCc1ccc(C2=[N+]3C(=C4c5cc(OCC(CC)CC)c(-c6ccc(CCCCCCC)o6)n5[B-](F)(F)[n+]5nnn(c54)[B-]3(F)F)C=C2OCC(CC)CC)o1	no (0)
Clc1ccc(/C=C/c2ccc(-c3nc4c5cccnc5c5ncccc5c4[nH]3)cc2)cc1	yes (1)

====

Entries and their absorption maximum
Test: solvent given as SMILES
Details: in OCCO
Endpoint Name: absorption maximum (nm)

> print(dat)
                                   molecule  recorded.measurement
1  COC(=O)C(Cc1ccc2oc(-c3ccc4c(c3)c3ccccc3n4-c3ccccc3)nc2c1)NC(=O)OC(C)(C)C (stereo not given)                 338.9
2  CCC1=C(C)C2=C(C)c3c(C)c(CC)c(C)n3[B-](F)(F)[N+]2=C1C                   518
3  NC(=O)CC[C@H](/[NH+]=C\C=C1\C=C(C(=O)O)N[C@H](C(=O)O)C1)C(=O)O                   478
4                     NC(=O)Cc1cccc2ccccc12                   283
5  CN(CCO)c1ccc(/N=N/c2ccc([N+](=O)[O-])cc2)cc1                   498

====

Assay: solvent given as SMILES
Conditions: in CCO

Molecule	Unit Info	absorption maximum
O=c1c2cc(F)c(O)cc2oc2cc(N3CCCCC3)c(F)cc12	nm	373
CCOC(=O)c1cc(C(=O)OCC)c2cc([N+](=O)[O-])ccc2n1	nm	304
O=C(/C=C/c1cn(-c2ccccc2)nc1-c1ccccc1)c1c(O)c2ccccc2oc1=O	nm	400
OC1(c2ccc(-c3cccs3)s2)CCC(c2ccccc2)CC1 (centres undefined)	nm	309
CCCCOC(=O)/C(C#N)=C1\C(=O)C([O-])=C1C=C1N(C)c2ccccc2C1(C)C	nm	462
CCN(CC)c1ccc2cc(C#N)/c(=N\C(=O)c3ccc(C)cc3)oc2c1	nm	430
CC1CCC(O)(c2ccc(-c3cccs3)s2)CC1 (centres undefined)	nm	341
C[C@]12C(=O)NC(=O)N([C@H]3CC(O)[C@@H](CO)O3)[C@H]1[C@H]1Oc3cc4oc(=O)ccc4cc3[C@H]12 (some centres undefined)	nm	327
CC1=CC(C)=[N+]2C1=C(c1c3ccccc3cc3ccccc13)c1c(C)cc(C)n1[B-]2(F)F	nm	505
CCOC(=O)c1cc(C(=O)OCC)c2cc(OC)ccc2n1	nm	355
O=C1C2=C(O[B-](F)(F)[n+]3c2ccc2ccccc23)c2ccc(N3CCOCC3)c3cccc1c23	nm	460
Nc1cc[nH]c(=S)n1	nm	280
Cc1c2oc3c(C)c(N)cc(C(=O)NC4OC(=O)C(C(C)C)N(C)C(=O)CN(C)C(=O)C5CCCN5C(=O)C(C(C)C)NC4=O)c3nc-2c(C(=O)NC2OC(=O)C(C(C)C)N(C)C(=O)CN(C)C(=O)C3CCCN3C(=O)C(C(C)C)NC2=O)c(N)c1=O (centres undefined)	nm	531.93
CN(C)c1ccc(/C=C/c2cc[n+](CCCOCC(COCCC[n+]3ccc(/C=C/c4ccc(N(C)C)cc4)cc3)(COCCC[n+]3ccc(/C=C/c4ccc(N(C)C)cc4)cc3)COCCC[n+]3ccc(/C=C/c4ccc(N(C)C)cc4)cc3)cc2)cc1	nm	484
CC1=CC(C)=[N+]2C1=C(c1c3ccccc3c(C)c3ccccc13)c1c(C)cc(C)n1[B-]2(F)F	nm	504
COc1ccc(C(=O)COc2c(C)c(=O)n3c(=O)c(C)c(COC(=O)c4ccccc4Cl)n23)cc1	nm	382
c1ccc(-c2ccc(-c3ccccc3)cc2)cc1	nm	280
O=c1c(-c2ccc(O)cc2)coc2cc(O)cc(O)c12	nm	340
CC1=CC(C)=[N+]2C1=C(c1c3ccccc3c(-c3ccccc3)c3ccccc13)c1c(C)cc(C)n1[B-]2(F)F	nm	504

====

compounds and their reported absorption maximum
Assay: solvent given as SMILES
Details: in ClCCl
Endpoint Name: absorption maximum (nm)

> print(dat)
                            molecule.smiles  unit.info  recorded.measurement
1  Cc1cc2ccccc2c2c1c1ccccc1n2-c1ccc(C#N)cc1         nm                   303
2  CC(C)(C)c1ccc2c(c1)c1cc(C(C)(C)C)ccc1n2-c1ccc(C#Cc2cccc(C#Cc3ccc(-n4c5ccc(C(C)(C)C)cc5c5cc(C(C)(C)C)ccc54)cc3)c2)cc1         nm                   345
3  COc1ccc2cc(C3=[N+]4C(=Nc5c(-c6ccccc6)cc(-c6ccc7cc(OC)ccc7c6)n5[B-]4(F)F)C(c4ccccc4)=C3)ccc2c1         nm                   706
4  O=[N+]([O-])c1ccc2c(c1)-c1c3c(c4c([n+]1[B-](F)(F)O2)CCc1ccccc1-4)CCc1ccccc1-3         nm                   343
5  COc1ccc(/C=C/C2=[O+][B-](F)(F)OC(/C=C/c3ccc(OC)cc3)=C2c2ccc(OC)cc2)cc1         nm                   506
6  CCCCCCc1ccc(-n2c3[n+](c4c5ccccc5c5ccccc5c42)[B-](C)(C)c2ccc4ccccc4c2-3)cc1         nm                   390
